Hey, just so you know, these numbers are from patent US20210388087A1.

// values below are reported fold change of affinity
system_under_test: T1, Human CD137 ECD (human)
T1 construct: entry includes C-terminal His-tag and biotin acceptor peptide; also called human CD137 extracellular domain; 4-1BB
experimental_details: Biacore SPR, vs parent H183/L072
measure_name: fold change of affinity (fold)

>>> reported_value("H183/L072 VL L27bQ (antibody, name in Kabat numbering, V domains shown, Dual-Ig) VH: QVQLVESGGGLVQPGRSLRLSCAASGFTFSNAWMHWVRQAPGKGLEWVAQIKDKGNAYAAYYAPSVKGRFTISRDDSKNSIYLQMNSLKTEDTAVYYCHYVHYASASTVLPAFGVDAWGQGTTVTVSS VL: DIVMTQSPLSLPVTPGEPASISCQASQEQVHMNRNTYLHWYQQKPGQAPRLLIYKVSNRFPGVPDRFSGSGSGTDFTLKISRVEAEDVGVYYCAQGTSVPFTFGQGTKLEIK")
0.2
>>> reported_value("H183/L072 VL H27dD (antibody, name in Kabat numbering, V domains shown, Dual-Ig) VH: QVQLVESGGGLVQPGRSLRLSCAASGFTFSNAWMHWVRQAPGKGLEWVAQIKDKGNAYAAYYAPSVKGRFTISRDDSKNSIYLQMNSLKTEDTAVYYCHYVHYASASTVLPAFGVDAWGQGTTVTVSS VL: DIVMTQSPLSLPVTPGEPASISCQASQELVDMNRNTYLHWYQQKPGQAPRLLIYKVSNRFPGVPDRFSGSGSGTDFTLKISRVEAEDVGVYYCAQGTSVPFTFGQGTKLEIK")
0.3
>>> reported_value("H183/L072 VL F55G (antibody, name in Kabat numbering, V domains shown, Dual-Ig) VH: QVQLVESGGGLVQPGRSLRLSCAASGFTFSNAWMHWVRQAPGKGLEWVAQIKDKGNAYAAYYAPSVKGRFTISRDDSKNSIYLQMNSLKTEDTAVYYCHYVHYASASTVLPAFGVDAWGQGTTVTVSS VL: DIVMTQSPLSLPVTPGEPASISCQASQELVHMNRNTYLHWYQQKPGQAPRLLIYKVSNRGPGVPDRFSGSGSGTDFTLKISRVEAEDVGVYYCAQGTSVPFTFGQGTKLEIK")
0
>>> reported_value("H183/L072 VL S26I (antibody, name in Kabat numbering, V domains shown, Dual-Ig) VH: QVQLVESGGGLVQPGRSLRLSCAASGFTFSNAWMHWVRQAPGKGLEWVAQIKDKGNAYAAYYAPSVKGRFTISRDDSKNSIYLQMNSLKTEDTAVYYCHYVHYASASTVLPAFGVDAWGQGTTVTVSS VL: DIVMTQSPLSLPVTPGEPASISCQAIQELVHMNRNTYLHWYQQKPGQAPRLLIYKVSNRFPGVPDRFSGSGSGTDFTLKISRVEAEDVGVYYCAQGTSVPFTFGQGTKLEIK")
0.2
>>> reported_value("H183/L072 VL Q27P (antibody, name in Kabat numbering, V domains shown, Dual-Ig) VH: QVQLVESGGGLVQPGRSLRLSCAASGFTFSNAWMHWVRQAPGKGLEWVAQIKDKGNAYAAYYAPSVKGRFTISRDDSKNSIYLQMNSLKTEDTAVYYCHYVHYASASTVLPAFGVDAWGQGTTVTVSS VL: DIVMTQSPLSLPVTPGEPASISCQASPELVHMNRNTYLHWYQQKPGQAPRLLIYKVSNRFPGVPDRFSGSGSGTDFTLKISRVEAEDVGVYYCAQGTSVPFTFGQGTKLEIK")
0.1
